# measured target: EPAC1 (Homo sapiens (Human), UniProt O95398)
# assay text: biochemical
# conditions: Rap 1b-bGDP EPAC1 IC50
// NB: equality with 10 µM counts as False; only IC50 strictly below is True

Is the reported IC50 for N#CC(=NNc1cc(Cl)cc(C(F)(F)F)c1)C(=O)c1cc(-c2ccccc2)on1 [Compound 13] strictly below 10 µM?
True

Lab note: IC50 threshold 10 µM. Does this molecule come in strictly under it? N#CC(=NNc1cccc(Cl)c1)C(=O)c1noc2ccccc12 [Compound 30]
False

Determine if N#CC(=NNc1ccc(F)c(Cl)c1)C(=O)c1noc2ccccc12 [Compound 35] shows IC50 strictly lower than 10 µM.
True

Does the reported IC50 of the following molecule sit strictly below 10 µM? N#CC(=NNc1cc(C(F)(F)F)cc(C(F)(F)F)c1)C(=O)c1cc(-c2ccccc2)on1 [Compound 15]
True

Item COc1ccc(-c2cc(C(=O)C(C#N)=NNc3cccc(Cl)c3)no2)cc1 [Compound 22] : IC50 beneath 10 µM, strictly?
False

Dear reviewer, please state whether N#CC(=NNc1ccc(Cl)c(C(F)(F)F)c1)C(=O)c1cc(-c2ccc(Cl)cc2)on1 [Compound 20] has IC50 strictly beneath 10 µM.
True

Please check: IC50 for CC(C)(C)c1ccc(-c2cc(C(=O)C(C#N)=NNc3cccc(Cl)c3)no2)cc1 [Compound 7] , strictly under 10 µM or not?
True

====

Exercise: for every item that follows, state its recorded pIC50.
# measured target: EPAC1 (Homo sapiens (Human))
# assay text: biochemical
# conditions: Rap 1b-bGDP EPAC1 IC50, apparent IC50, EPAC1 GEF activity, 20 μM cAMP
pIC50: −log10 of the molar value.

State its pIC50: N#C/C(=N\Nc1cc(Cl)cc(Cl)c1)C(=O)c1cccc(Cl)c1 [ZL0546]
< 3.52

Report measured pIC50; entry is COc1ccc(C(=O)/C(C#N)=N/Nc2cc(Cl)cc(Cl)c2)cc1OC [ZL0631]
< 3.52

Give pIC50 for N#C/C(=N\Nc1cc(Cl)cc(Cl)c1)C(=O)c1ccc(Cl)cc1 [ZL0491]
< 3.52

Query pIC50 for COc1ccc(-c2cc(C(=O)C(C#N)=NNc3ccc(Cl)c(C(F)(F)F)c3)no2)cc1 [Compound 23]
> 5.10

The reported numbers originate from patent US11124489B2.
